MEASUREMENT_PROTOCOL: In vitro simulated gastrointestinal digestion (SGD, INFOGEST 2.0): concentration and bioaccessibility by UHPLC-DAD-MSn
MEASUREMENT_PARAMETERS: controls (without enzymes); initial solution, reference
Marks after values point to notes of the source that are not given here.
QUANTITY_MEASURED: Bioaccessibility (%), initial solution (IS)

Which Bioaccessibility (%), initial solution (IS) is listed for `Oc1cc(O)cc(O)c1` ?
100 ^a %

Would you mind telling me what Bioaccessibility (%), initial solution (IS) value was observed for `C[C@@H]1O[C@@H](OC[C@H]2O[C@@H](Oc3c(-c4ccc(O)c(O)c4)oc4cc(O)cc(O)c4c3=O)[C@H](O)[C@@H](O)[C@@H]2O)[C@H](O)[C@H](O)[C@H]1O` ?
100 ^a,b %

***
Which measured Bioaccessibility (%), initial solution (IS) value corresponds to `O=C(CCc1ccc(O)cc1)c1c(O)cc(O)cc1O` ?
100 ^a,b %

Can you share its Bioaccessibility (%), initial solution (IS)? I mean this compound: `O=c1c(-c2ccc(O)cc2)coc2cc(O)ccc12`
100^ a %
